Listing of recorded LD50 (HEK-293), given as % at 40 μM by entry.
# System: HEK 293 mammalian cells
# Experiment notes: cytotoxicity against HEK 293 mammalian cells (LD50)
# Format: cell-based
# Experimental conditions: at 40 μM; single experiment
Parameter measured: LD50 (HEK-293), given as % at 40 μM (% at 40 μM)

1) CC(C)=CCC1(CC=C(C)C)C(=O)C(=O)C2=C1O[C@H](c1ccccc1)C[C@H]2O (relative stereo) = 101
2) COc1cc(OC)c2c(c1CC=C(C)C)O[C@H](c1ccccc1)C[C@H]2OC = 87
3) CC(C)=CCc1cc2c(cc1O)OC[C@@]1(O)c3cc4c(cc3O[C@@H]21)OCO4 = 27
4) CC(C)=CCC1(CC=C(C)C)C(=O)[C@](O)(CC=C(C)C)C(=O)C2=C1O[C@H](c1ccccc1)C[C@H]2O = 34
